Experiment: Pharmacokinetic studies in the mouse
Format: in vivo
Settings: plasma, 5.0 mg/kg PO, read-out: Vz/F obs
Method: Plasma samples were collected from healthy mice and analyzed for levels of compound ID #1, ID #2, and ID #3 and reported in Table 5. […] Standards used for quantitation and quality control samples (QC's) were prepared on the same day of sample processing using blank plasma obtained from non-treated mice. […] Plasma samples were stored at −80° C. until ready for analysis and then placed on ice for thawing. […]
Metric: Vd/F (L/kg)
The response must be a number in L/kg with no trailing unit.

Sample records with Vd/F:
INSERT INTO results (structure_as_smiles, value) VALUES
  ('O=C(NO)c1ccc(Nc2nc3ccccc3n2CC2CCCCC2)cc1', 6.16),
  ('O=C(NO)c1ccc(Nc2nc3ccccc3n2C2CCCCCC2)cc1', 13.1);

Proceed to the following item.
Notebook: "O=C(NO)c1ccc(Nc2nc3ccccc3n2C2CCCCC2)cc1" , Vd/F read as 14.5

---

List of IC50 values.
tested on: MV411; experiment: CellTiter-Glo cell viability assay, MV411; format: cell-based; conditions: Homo sapiens, MV4-11; AML, MV411, 72 hours
The response must be a number in nM with no trailing unit.

INSERT INTO results (structure_as_smiles, metric, value) VALUES
  ('O=C(NO)c1ccc(Nc2nc3ccccc3n2C2CCCCCC2)cc1', 'IC50', 2750);

Proceed to the following item.
Notebook: "O=C(NO)c1ccc(Nc2nc3ccccc3n2CC2CCCCC2)cc1" , IC50 read as 630

---

assay: Pharmacokinetic studies in the mouse; format: in vivo; settings: plasma, po, 5 mg/kg, 5.0 mg/kg PO, read-out: Cmax
Metric: Cmax (ng/mL)
The response must be a number in ng/mL with no trailing unit.

INSERT INTO measurements (structure_as_smiles, value) VALUES
  ('O=C(NO)c1ccc(Nc2nc3ccccc3n2CC2CCCCC2)cc1', 757);

Notebook: "O=C(NO)c1ccc(Nc2nc3ccccc3n2C2CCCCCC2)cc1" , Cmax read as 349

Notebook: "O=C(NO)c1ccc(Nc2nc3ccccc3n2C2CCCCC2)cc1" , Cmax read as 407

---

List of pIC50 values.
test system: Raji; assay: CellTiter-Glo cell viability assay, Raji; format: cell-based; conditions: Homo sapiens, Lymphoma, 72 hours
Bear in mind: pIC50 is minus log10 of a mol/L concentration; give just that figure.

INSERT INTO assay_data (structure_as_smiles, value) VALUES
  ('O=C(NO)c1ccc(Nc2nc3ccccc3n2CC2CCCCC2)cc1', 5.74);

Notebook: "O=C(NO)c1ccc(Nc2nc3ccccc3n2C2CCCCCC2)cc1" , pIC50 read as 5.32

---

tested on: U266; test: CellTiter-Glo cell viability assay, U266; format: cell-based; details: Homo sapiens, U-266; Myeloma, U266, 72 hours
Metric: pIC50
Bear in mind: pIC50 is minus log10 of a mol/L concentration; give just that figure.

INSERT INTO assay_data (compound, system_name, metric, value) VALUES
  ('O=C(NO)c1ccc(Nc2nc3ccccc3n2C2CCCCCC2)cc1 [ID #3]', 'U266', 'pIC50', 5.39);

Proceed to the following item.
Notebook: O=C(NO)c1ccc(Nc2nc3ccccc3n2CC2CCCCC2)cc1 [ID #1] , pIC50 read as 5.93
